The values you see were collected from PubChem BioAssay AID2060496.

Test system: 276233-004-R-J1-PDC complex spheroid viability
assay.comment: Anticancer human tumor 276233-004-R-J1-PDC patient-derived colon adenocarcinoma cell line growth inhibition [GQUAD]
conditions: second compound 10 µM; first compound 0.0999 µM; stronger effect = lower value
value.type: viability, T/C (%)
The reply should contain only the number, in %.

* CCc1c2c(nc3ccc(O)cc13)-c1cc3c(c(=O)n1C2)COC(=O)[C@]3(O)CC + Cc1cnc(CNC(=O)c2c(=O)c3ccc(N4CCCN(C)CC4)nc3n3c2sc2ccccc23)cn1 | 77.8
* Cc1[nH]c2ccccc2c1CCNCc1ccc(/C=C/C(=O)NO)cc1 + Cc1cnc(CNC(=O)c2c(=O)c3ccc(N4CCCN(C)CC4)nc3n3c2sc2ccccc23)cn1 | 26.4
* CCc1c2c(nc3ccc(O)cc13)-c1cc3c(c(=O)n1C2)COC(=O)[C@]3(O)CC + Cc1[nH]c2ccc(F)cc2c1-c1nc2c3cccnc3c3ncccc3c2[nH]1 | 55.4
* Cc1[nH]c2ccccc2c1CCNCc1ccc(/C=C/C(=O)NO)cc1 + Cc1[nH]c2ccc(F)cc2c1-c1nc2c3cccnc3c3ncccc3c2[nH]1 | 35.3
* Cc1[nH]c2ccccc2c1CCNCc1ccc(/C=C/C(=O)NO)cc1 + CN(C)c1ccc(Nc2c3ccc(NC(=O)CCN4CCCC4)cc3nc3cc(NC(=O)CCN4CCCC4)ccc23)cc1 | 34

The reported 276233-004-R-J1-PDC complex spheroid viability viability, T/C of CC[C@@]1(O)C(=O)OCc2c1cc1n(c2=O)Cc2cc3c(CN(C)C)c(O)ccc3nc2-1 + CN(C)c1ccc(Nc2c3ccc(NC(=O)CCN4CCCC4)cc3nc3cc(NC(=O)CCN4CCCC4)ccc23)cc1 is 43.8

The reported 276233-004-R-J1-PDC complex spheroid viability viability, T/C of Cn1ncnc1[C@H]1c2n[nH]c(=O)c3cc(F)cc(c23)N[C@@H]1c1ccc(F)cc1 + Cc1[nH]c2ccc(F)cc2c1-c1nc2c3cccnc3c3ncccc3c2[nH]1 is 62

The reported 276233-004-R-J1-PDC complex spheroid viability viability, T/C of CC[C@@]1(O)C(=O)OCc2c1cc1n(c2=O)Cc2cc3c(CN(C)C)c(O)ccc3nc2-1 + Cc1[nH]c2ccc(F)cc2c1-c1nc2c3cccnc3c3ncccc3c2[nH]1 is 50.7

* * *

Below is a list of entries, each paired with its recorded pIC50 value.
Test system: 276233-004-R-J1-PDC complex spheroid viability
assay.comment: Anticancer human tumor 276233-004-R-J1-PDC cell line growth inhibition [GQUAD];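 further: spheroids exposed to drugs for seven days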
conditions: curve of compound
pIC50: −log10 of the molar value.

• Cc1cccc(N(C)C(=O)C2C(O)CCN2c2nc(C)cc(C(F)(F)F)c2C#N)c1 (stereo not drawn) = < 5.00
• CC1COCCN1c1cc(C2(S(C)(=N)=O)CC2)nc(-c2ccnc3[nH]ccc23)n1 (stereo not drawn) = < 5.00
• CC[C@@]1(O)C(=O)OCc2c1cc1n(c2=O)Cc2cc3c(CN(C)C)c(O)ccc3nc2-1 = < 6.50
• C=CCn1c(=O)c2cnc(Nc3ccc(N4CCN(C)CC4)cc3)nc2n1-c1cccc(C(C)(C)O)n1 = < 5.00
• CC(C)n1c(=O)n(C)c2cnc3cc(F)c(-c4ccc(OCCCN5CCCCC5)nc4)cc3c21 = < 5.00
• CCc1c2c(nc3ccc(O)cc13)-c1cc3c(c(=O)n1C2)COC(=O)[C@]3(O)CC = < 6.50
• CC(=O)O[C@H]1C(=O)[C@@]2(C)[C@H]([C@H](OC(=O)c3ccccc3)[C@]3(O)C[C@H](OC(=O)[C@H](O)[C@@H](NC(=O)c4ccccc4)c4ccccc4)C(C)=C1C3(C)C)[C@]1(OC(C)=O)CO[C@@H]1C[C@@H]2O = < 5.00

// below: pIC50 requested for another molecule
The reported pIC50 of the molecule CCCS(=O)(=O)Nc1ccc(F)c(C(=O)c2c[nH]c3ncc(-c4ccc(Cl)cc4)cc23)c1F was < 5.00
